- test_system: ScLsb3
- test: SPOT peptide array binding signal intensity (averaged, normalized) (arbitrary units (background-subtracted, floor 0; scale differs between SH3 domains)); higher = stronger binding of the SH3 domain to the peptide
SPOT peptide array binding signal intensity of 600 or higher: Met. Under 600: Not met.

Illustrative cases are given below, each with its answer.
binder | category_label
QLMKNLPKIPLLNDI | Not met
NLDRSKISLPDFDDE | Not met
YSRKKLPVVLSKMTL | Not met
ITHRLRISIPGITGR | Not met
PSPSSSPPPIPKTAN | Not met
PIVPSSPAPPLPLSG | Not met
QGYPRQPQRPQRYHP | Met
TPTSGPPLLPPRNTM | Met
DFTLPPPPPPPGLDE | Not met
MPAPPPPPPPPPGAF | Not met

Now, please, on to the next binder.
Lookup: // inclusive: SPOT peptide array binding signal intensity at least 600? input: APKHAPPPVPNETDN
Found: Not met
